Assay: Half life in Sprague-Dawley rat at 5 mg/kg, po by reverse phase chromatography
Assay type: ADME, organism-based
Conditions: in vivo
metricName: half-life (h)

{"cpdSmiles": "C[C@@]1(O)[C@H](O)[C@@H](CO)O[C@H]1c1coc2c(N)ncnc12", "endpointUnit": "h", "quantitativeResult": 9.18}

* * *

Assay: Metabolic stability in Non human primate liver microsome assessed as half life in presence of NADPH
Type: ADME
Details: liver microsomes

{"cpdSmiles": "C[C@@]1(O)[C@H](O)[C@@H](CO)O[C@H]1c1coc2c(N)ncnc12", "half-life": "> 1.67 h"}

* * *

Assay: AUC in Sprague-Dawley rat at 10 mg/kg, po by reverse phase chromatography
Assay type: ADME, organism-based
Settings: in vivo
metricName: AUC (ng·h/mL)

{"cpdSmiles": "C[C@@]1(O)[C@H](O)[C@@H](CO)O[C@H]1c1coc2c(N)ncnc12", "metricName": "AUC", "quantitativeResult": 4980}
